- System: KRAS PDC tumor spheroids (HUVEC+MSC), viability
- assay_details: Anticancer human tumor 254851-301-R-J1-PDC patient-derived colon carcinoma cell line growth inhibition [KRAS2]
- measurement_parameters: second compound 0.0316 µM; first compound 0.1 µM; active compounds read low
measurement_kind: viability, T/C (%)
Reply with just the number (in %).

## Input Data request, read-out viability, T/C, for COC(=O)c1ccc2c(C(=Nc3ccc(N(C)C(=O)CN4CCN(C)CC4)cc3)c3ccccc3)c(O)[nH]c2c1 + C=CC(=O)N1CCN(c2nc(OCC3CCCN3C)nc3c2CCN(c2cccc4cccc(C)c24)C3)CC1CC#N
## Output 89.8

## Input Data request, read-out viability, T/C, for CC1(C)CCC(CN2CCN(c3ccc(C(=O)NS(=O)(=O)c4ccc(NCC5CCOCC5)c([N+](=O)[O-])c4)c(Oc4cnc5[nH]ccc5c4)c3)CC2)=C(c2ccc(Cl)cc2)C1 + C=CC(=O)N1CCN(c2nc(OCC3CCCN3C)nc3c2CCN(c2cccc4cccc(C)c24)C3)CC1CC#N
## Output 101

## Input Data request, read-out viability, T/C, for O=C(c1cc(Cc2n[nH]c(=O)c3ccccc23)ccc1F)N1CCN(C(=O)C2CC2)CC1 + C=CC(=O)N1CCN(c2nc(OCC3CCCN3C)nc3c2CCN(c2cccc4cccc(C)c24)C3)CC1CC#N
## Output 111

## Input Data request, read-out viability, T/C, for CCNC(=O)CC1N=C(c2ccc(Cl)cc2)c2cc(OC)ccc2-n2c(C)nnc21 (stereo not given) + C=CC(=O)N1CCN(c2nc(OCC3CCCN3C)nc3c2CCN(c2cccc4cccc(C)c24)C3)CC1CC#N
## Output 90.4

## Input Data request, read-out viability, T/C, for COc1cc2nccc(Oc3ccc(NC(=O)C4(C(=O)Nc5ccc(F)cc5)CC4)cc3)c2cc1OC + C=CC(=O)N1CCN(c2nc(OCC3CCCN3C)nc3c2CCN(c2cccc4cccc(C)c24)C3)CC1CC#N
## Output 103

###

- Tested on: KRAS PDC tumor spheroids (HUVEC+MSC), viability
- assay_details: Anticancer human tumor 254851-301-R-J1-PDC cell line growth inhibition [KRAS2]
- measurement_parameters: second compound 0.1 µM; first compound 0.00316 µM; active compounds read low
viability, T/C values for the molecules below.
Reply with just the number (in %).

molecule	study_system	unit_string	numeric_result
CC(C)n1nc(-c2ccc3oc(N)nc3c2)c2c(N)ncnc21 + CNCc1ccccc1-c1csc(C(C)Nc2nc(C)nc3cc(OC)c(OC)cc23)c1	KRAS PDC tumor spheroids (HUVEC+MSC), viability	%	89.2
CC(=O)Nc1cccc(-n2c(=O)n(C3CC3)c(=O)c3c(Nc4ccc(I)cc4F)n(C)c(=O)c(C)c32)c1 + CC1OCC2(CCN(c3cnc(Sc4ccnc(N)c4Cl)c(N)n3)CC2)C1N	KRAS PDC tumor spheroids (HUVEC+MSC), viability	%	63
CC(=O)Nc1cccc(-n2c(=O)n(C3CC3)c(=O)c3c(Nc4ccc(I)cc4F)n(C)c(=O)c(C)c32)c1 + COc1cc2nc(C)nc(NC(C)c3cc(N)cc(C(F)(F)F)c3)c2cc1OC1CCOC1	KRAS PDC tumor spheroids (HUVEC+MSC), viability	%	60.4

## Input Data request, read-out viability, T/C, for CN(C)C/C=C/C(=O)Nc1cc2c(Nc3ccc(F)c(Cl)c3)ncnc2cc1O[C@H]1CCOC1 + COc1cc2nc(C)nc(NC(C)c3cc(N)cc(C(F)(F)F)c3)c2cc1OC1CCOC1
## Output 108

## Input Data request, read-out viability, T/C, for CC(C)n1nc(-c2ccc3oc(N)nc3c2)c2c(N)ncnc21 + COc1cc2nc(C)nc(NC(C)c3cc(N)cc(C(F)(F)F)c3)c2cc1OC1CCOC1
## Output 91.2

## Input Data request, read-out viability, T/C, for CN(C)C/C=C/C(=O)Nc1cc2c(Nc3ccc(F)c(Cl)c3)ncnc2cc1O[C@H]1CCOC1 + CNCc1ccccc1-c1csc(C(C)Nc2nc(C)nc3cc(OC)c(OC)cc23)c1
## Output 96.4

###

- System: KRAS PDC tumor spheroids (HUVEC+MSC), viability
- assay_details: Anticancer human tumor 254851-301-R-J1-PDC cell line growth inhibition [KRAS2]; active = viability on the fitted dose curve at most 10% of control; inactive = the rest;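 note: spheroids exposed to compounds for seven days before readout; 100% = DMSO vehicle control luminescence of the spheroids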
- measurement_parameters: second compound 10 µM; first compound 1 µM
Respond with a class label; see 1 (active), 0 (inactive)

molecule	label
O=C(c1cc(Cc2n[nH]c(=O)c3ccccc23)ccc1F)N1CCN(C(=O)C2CC2)CC1 + COc1cc2nc(C)nc(NC(C)c3cc(N)cc(C(F)(F)F)c3)c2cc1OC1CCOC1	0

Now look at this entry.
## Input What did the test return for CC1OCC2(CCN(c3cnc(Sc4ccnc(N)c4Cl)c(N)n3)CC2)C1N (stereo not given) + COc1cc2nc(C)nc(NC(C)c3cc(N)cc(C(F)(F)F)c3)c2cc1OC1CCOC1 ?
## Output 0

###

viability, T/C values for the molecules below.
- Tested on: KRAS PDC tumor spheroids (HUVEC+MSC), viability
- assay_details: Anticancer human tumor 254851-301-R-J1-PDC cell line growth inhibition [KRAS2];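 note: spheroids exposed to compounds for seven days before readout; 100% = DMSO vehicle control luminescence of the spheroids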
- measurement_parameters: second compound 0.0316 µM; first compound 0.1 µM; active compounds read low
- Text: Multicellular complex tumor spheroid response to RAS pathway inhibitors in combination with a targeted agents in patient-derived cell lines with oncogenic KRAS variants from multiple cancer types A high-throughput screen of multi-cell type tumor spheroids was designed to identify active combinations of targeted small molecules and KRAS pathway inhibitors. […] Compounds. […] If the clinical Cmax for an agent had not been determined, the highest concentration tested was 10 microM. […]
Reply with just the number (in %).

molecule	study_system	viability, T/C, %
CC1COCCN1c1cc(-c2ccnn2C)c2ccnc(-c3ccn[nH]3)c2n1 (stereo not given) + C=CC(=O)N1CCN(c2nc(OCC3CCCN3C)nc3c2CCN(c2cccc4cccc(C)c24)C3)CC1CC#N	KRAS PDC tumor spheroids (HUVEC+MSC), viability	62.7
CC1OCC2(CCN(c3cnc(Sc4ccnc(N)c4Cl)c(N)n3)CC2)C1N (stereo not given) + C=CC(=O)N1CCN(c2nc(OCC3CCCN3C)nc3c2CCN(c2cccc4cccc(C)c24)C3)CC1CC#N	KRAS PDC tumor spheroids (HUVEC+MSC), viability	99.7
Cn1nccc1Nc1nccc(-c2cc3c(s2)C(C)(C)N(CCN2CCOCC2)C3=O)n1 + C=CC(=O)N1CCN(c2nc(OCC3CCCN3C)nc3c2CCN(c2cccc4cccc(C)c24)C3)CC1CC#N	KRAS PDC tumor spheroids (HUVEC+MSC), viability	112

## Input Data request, read-out viability, T/C, for CN(C)C/C=C/C(=O)Nc1cc2c(Nc3ccc(F)c(Cl)c3)ncnc2cc1O[C@H]1CCOC1 + C=CC(=O)N1CCN(c2nc(OCC3CCCN3C)nc3c2CCN(c2cccc4cccc(C)c24)C3)CC1CC#N
## Output 78.7

## Input Data request, read-out viability, T/C, for CC(C)NCC(C(=O)N1CCN(c2ncnc3c2C(C)CC3O)CC1)c1ccc(Cl)cc1 (stereo not given) + C=CC(=O)N1CCN(c2nc(OCC3CCCN3C)nc3c2CCN(c2cccc4cccc(C)c24)C3)CC1CC#N
## Output 96.1

###

viability, T/C values for the compounds below.
- Test system: KRAS PDC tumor spheroids (HUVEC+MSC), viability
- assay_details: Anticancer human tumor 254851-301-R-J1-PDC cell line growth inhibition [KRAS2];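 note: spheroids exposed to compounds for seven days before readout; 100% = DMSO vehicle control luminescence of the spheroids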
- measurement_parameters: second compound 10 µM; first compound 1 µM; active compounds read low
Reply with just the number (in %).

## Input I'm curious: which viability, T/C was measured for CC1(C)CCC(CN2CCN(c3ccc(C(=O)NS(=O)(=O)c4ccc(NCC5CCOCC5)c([N+](=O)[O-])c4)c(Oc4cnc5[nH]ccc5c4)c3)CC2)=C(c2ccc(Cl)cc2)C1 + COc1cc2nc(C)nc(NC(C)c3cc(N)cc(C(F)(F)F)c3)c2cc1OC1CCOC1 tested on KRAS PDC tumor spheroids (HUVEC+MSC), viability?
## Output 73.9

## Input I'm curious: which viability, T/C was measured for CC(=O)OC12COC1CC(O)C1(C)C(=O)C(O)C3=C(C)C(OC(=O)C(O)C(NC(=O)OC(C)(C)C)c4ccccc4)CC(O)(C(OC(=O)c4ccccc4)C21)C3(C)C (stereo not drawn) + COc1cc2nc(C)nc(NC(C)c3cc(N)cc(C(F)(F)F)c3)c2cc1OC1CCOC1 tested on KRAS PDC tumor spheroids (HUVEC+MSC), viability?
## Output 25.1

## Input I'm curious: which viability, T/C was measured for CC(C)NCC(C(=O)N1CCN(c2ncnc3c2C(C)CC3O)CC1)c1ccc(Cl)cc1 (stereo not drawn) + COc1cc2nc(C)nc(NC(C)c3cc(N)cc(C(F)(F)F)c3)c2cc1OC1CCOC1 tested on KRAS PDC tumor spheroids (HUVEC+MSC), viability?
## Output 41.2

###

viability, T/C values for the compounds below.
- System: KRAS PDC tumor spheroids (HUVEC+MSC), viability
- assay_details: Anticancer human tumor 254851-301-R-J1-PDC cell line growth inhibition [KRAS2];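 note: spheroids exposed to compounds for seven days before readout; 100% = DMSO vehicle control luminescence of the spheroids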
- measurement_parameters: second compound 0.0316 µM; first compound 10 µM; active compounds read low
- From the text: Multicellular complex tumor spheroid response to RAS pathway inhibitors in combination with a targeted agents in patient-derived cell lines with oncogenic KRAS variants from multiple cancer types A high-throughput screen of multi-cell type tumor spheroids was designed to identify active combinations of targeted small molecules and KRAS pathway inhibitors. […] Compounds. […] If the clinical Cmax for an agent had not been determined, the highest concentration tested was 10 microM. […]
Reply with just the number (in %).

Here is how some compounds turned out for viability, T/C.
compound	viability, T/C, %
CC(C)NCC(C(=O)N1CCN(c2ncnc3c2C(C)CC3O)CC1)c1ccc(Cl)cc1 (stereo not given) + C=CC(=O)N1CCN(c2nc(OCC3CCCN3C)nc3c2CCN(c2cccc4cccc(C)c24)C3)CC1CC#N	94.7
COC(=O)c1ccc2c(C(=Nc3ccc(N(C)C(=O)CN4CCN(C)CC4)cc3)c3ccccc3)c(O)[nH]c2c1 + C=CC(=O)N1CCN(c2nc(OCC3CCCN3C)nc3c2CCN(c2cccc4cccc(C)c24)C3)CC1CC#N	83.3
CC1OCC2(CCN(c3cnc(Sc4ccnc(N)c4Cl)c(N)n3)CC2)C1N (stereo not given) + C=CC(=O)N1CCN(c2nc(OCC3CCCN3C)nc3c2CCN(c2cccc4cccc(C)c24)C3)CC1CC#N	75.3
COc1cc(Nc2ncc3c(n2)-c2ccc(Cl)cc2C(c2c(F)cccc2OC)=NC3)ccc1C(=O)O + C=CC(=O)N1CCN(c2nc(OCC3CCCN3C)nc3c2CCN(c2cccc4cccc(C)c24)C3)CC1CC#N	9.36

## Input Data request, read-out viability, T/C, for CC1(C)CCC(CN2CCN(c3ccc(C(=O)NS(=O)(=O)c4ccc(NCC5CCOCC5)c([N+](=O)[O-])c4)c(Oc4cnc5[nH]ccc5c4)c3)CC2)=C(c2ccc(Cl)cc2)C1 + C=CC(=O)N1CCN(c2nc(OCC3CCCN3C)nc3c2CCN(c2cccc4cccc(C)c24)C3)CC1CC#N
## Output 90

Hello, the source for this data is PubChem BioAssay AID1963868, in case you need it.
